Data origin: the supplement of paper PMC10681739

- target-desc: RUNX1 (UniProt Q01196)
- Sequence (Q01196 whole entry): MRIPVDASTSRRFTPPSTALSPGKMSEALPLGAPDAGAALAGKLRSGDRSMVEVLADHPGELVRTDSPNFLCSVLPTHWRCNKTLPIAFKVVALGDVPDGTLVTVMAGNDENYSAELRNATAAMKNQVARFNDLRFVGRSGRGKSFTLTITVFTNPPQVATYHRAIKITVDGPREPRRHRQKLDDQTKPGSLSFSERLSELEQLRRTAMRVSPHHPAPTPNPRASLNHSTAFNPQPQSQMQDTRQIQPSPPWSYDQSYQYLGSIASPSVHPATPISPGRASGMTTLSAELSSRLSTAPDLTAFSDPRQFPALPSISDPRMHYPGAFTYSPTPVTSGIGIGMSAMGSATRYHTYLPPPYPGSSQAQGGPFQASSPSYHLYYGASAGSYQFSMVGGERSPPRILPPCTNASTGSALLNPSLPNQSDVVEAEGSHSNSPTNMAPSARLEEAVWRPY
- protocol-notes: RUNX1 binding intensity (PBM fluorescence), RUNX1 alone (arbitrary fluorescence units); higher = stronger binding
- conditions: RUNX1 concentration 2 nM; ETS1 concentration 0 nM
Our labelling divides records by RUNX1 binding intensity into ranges: Low = under 800, Mid = from 800 up to 1000, High = 1000 and over

chain: CATGCGTCACCTTCCTGTGTGGTCAGCAGTGCTTGC
answer-label: Mid
//
chain: TCACTCTAACAGGATATTGTGGTTAACTATGTTGCC
answer-label: High
//
chain: GCCATGGCCACTTCCTGCTTGTAACCACAGCCCAGA
answer-label: High

Shifting focus to the sequence that follows.
Prompt: Class label required: AGGGTTACAATTTCCGTAAACCACAGAAGCAGCAGA
Completion: High

====

- target-desc: ETS1 (UniProt P14921)
- Sequence: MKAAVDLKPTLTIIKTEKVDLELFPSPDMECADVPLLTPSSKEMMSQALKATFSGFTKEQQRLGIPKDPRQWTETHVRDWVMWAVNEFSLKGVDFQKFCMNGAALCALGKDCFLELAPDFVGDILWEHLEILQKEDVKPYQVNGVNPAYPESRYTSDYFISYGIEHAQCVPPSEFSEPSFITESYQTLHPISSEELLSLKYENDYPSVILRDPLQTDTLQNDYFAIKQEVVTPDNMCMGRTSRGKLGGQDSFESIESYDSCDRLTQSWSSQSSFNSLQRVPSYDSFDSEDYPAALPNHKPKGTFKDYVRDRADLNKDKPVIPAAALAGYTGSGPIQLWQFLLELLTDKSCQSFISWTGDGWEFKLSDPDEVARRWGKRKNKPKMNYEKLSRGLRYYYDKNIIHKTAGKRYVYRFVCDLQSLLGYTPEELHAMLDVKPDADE
- protocol-notes: ETS1 binding intensity (PBM fluorescence), ETS1 alone (arbitrary fluorescence units); higher = stronger binding
- conditions: ETS1 concentration 1 nM; RUNX1 concentration 0 nM
metric-name: ETS1 binding intensity
One number for each entry.

chain: AGCCAACAGGAAGCTGCAGAGACTAAACCACAGCAA
target-desc: ETS1 (UniProt P14921)
metric-name: ETS1 binding intensity
obs-value: 1150
//
chain: GTCCTCTTCCTGTCCCCCAGGTGGGCATGTGGTTTG
target-desc: ETS1 (UniProt P14921)
metric-name: ETS1 binding intensity
obs-value: 519
//
chain: ACACCCCAGGCAGGATGTGGTAGGGGTTGCCCCAGA
target-desc: ETS1 (UniProt P14921)
metric-name: ETS1 binding intensity
obs-value: 2740

Provide the reported ETS1 binding intensity of each entry below, same order.
1. CTCAGAGGCACCAAGGGAAGTGGTTAAAACAGAAAG
2. GTCCCCGACTTCCGCTCTCGGTTGGTGGTTGGCTTT
3. TTTGTGCCCCAACTTCCTCTGTGGCTTTTGGGTGGG
4. CAGGCACACATCCGGGAGCGGCCTGCGCCGCAAGGC

Completion:
677
2370
650
608

====

- target-desc: ETS1 (UniProt P14921)
- Sequence: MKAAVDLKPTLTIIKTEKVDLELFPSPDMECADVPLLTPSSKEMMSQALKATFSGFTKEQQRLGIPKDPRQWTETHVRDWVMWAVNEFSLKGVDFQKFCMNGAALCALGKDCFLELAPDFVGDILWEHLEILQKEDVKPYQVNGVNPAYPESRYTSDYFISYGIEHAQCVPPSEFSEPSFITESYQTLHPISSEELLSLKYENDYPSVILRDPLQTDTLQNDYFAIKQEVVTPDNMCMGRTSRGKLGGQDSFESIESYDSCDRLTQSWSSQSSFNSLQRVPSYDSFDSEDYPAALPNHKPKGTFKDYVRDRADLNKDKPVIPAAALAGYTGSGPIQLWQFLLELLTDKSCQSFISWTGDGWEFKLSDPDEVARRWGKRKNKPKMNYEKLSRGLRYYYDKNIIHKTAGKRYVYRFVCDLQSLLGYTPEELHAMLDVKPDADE
- protocol-notes: ETS1 binding intensity (PBM fluorescence), ETS1 alone (arbitrary fluorescence units); higher = stronger binding
- conditions: ETS1 concentration 1 nM; RUNX1 concentration 0 nM
metric-name: ETS1 binding intensity
Numbers only.

Before answering, review these 2 worked examples.
chain: GTGTGAAGGAAGTGTGAGATCAAACCACAGCTGGGT
ETS1 binding intensity: 457
//
chain: CTTAGTGTTTGAGGATGTGGGTTTTACAATCAGATC
ETS1 binding intensity: 845

List reported ETS1 binding intensity for each of these sequences:
1. TTAGATGTGCCTACATCCTGACCTCAAAAACCTCTG
2. CTTGCTTGAGTCACAGGAAACCACTCAGAGGCTAAC
3. GCAGAGAGGAGGGGATGTGGTTTCACAGCTTGCTCC

Completion:
561
2600
422

Each sequence below has a recorded value; state its ETS1 binding intensity.
1. CCAGAAAGCTCCTCCTTCCGCCACAACACGATCACT
2. AGAACCACTTCCTCTCAGTAAACCACAGAGACTGTA
3. AGAAACGTCAATTTCCTGGCCACAGAATCCACTGCC
4. CTGGGGCTGAGGGAGGGATGTGGTGGGGCCCAGGCT

Completion:
1. 538
2. 592
3. 608
4. 411

Parameter requested: ETS1 binding intensity. Apply to each item below.
1. CCACTCCAGGAAACTCCTCCAGGTGAGCCCACAACT
2. GACTTGGGGGAAGTGGCTTGGTTTGCGTGGTTTCTC
3. GGAGGCGGAAGTGGAGGTTGTTGTGGCTCCGAGGGC

Completion:
1. 500
2. 433
3. 1940
